Where do these numbers come from? They come from the supplement of paper PMC10126150.

system: ATP; assay: switch fluorescence ratio, 500 uM ATP over buffer (Cy3 cluster intensity, sum of 5 cycles each) (fold (ratio)); higher = stronger signal-on switching upon ATP binding; sequences stand for … in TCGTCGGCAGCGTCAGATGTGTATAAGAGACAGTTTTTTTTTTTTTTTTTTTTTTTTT…TC; conditions: aptamer strand: ATP DNA aptamer (quencher-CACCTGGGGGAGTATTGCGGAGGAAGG + anchor), 100 nM annealed; ATP concentration: 500 uM;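 also: ATP exposure 15 min at 22 °C before imaging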
parameter: switch fluorescence ratio
Number, no unit, nothing else.

Q: GET /values?readout=switch fluorescence ratio&system=ATP&item= `TTGGTTGGTT`;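 also: ATP exposure 15 min at 22 °C before imaging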
Result: 0.978

Q: Provide the documented switch fluorescence ratio with ATP as the system for `GGGTCAGGTT`
Result: 1.01

Q: Return switch fluorescence ratio measured with ATP given this sequence: `GCAAATGAGT`
Result: 1

Q: Query switch fluorescence ratio on ATP for `TATACAATTG`
Result: 1.01

Q: Param readout = switch fluorescence ratio; param system = ATP; param query = `TCGCGCGGGT` ; response: value;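 also: ATP exposure 15 min at 22 °C before imaging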
Result: 0.989

Q: What reported switch fluorescence ratio corresponds to `AGTCCTAGGT` on ATP?
Result: 1.03

Q: Kindly state the measured switch fluorescence ratio obtained for `AGGGTTTGAG` with ATP.
Result: 1.11

Q: Request - read-out switch fluorescence ratio | tested on ATP | sequence `CACGAGATAA`;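 also: ATP exposure 15 min at 22 °C before imaging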
Result: 1.11

Q: ATP / switch fluorescence ratio / `TGAGAGCAGG` : value?
Result: 1.08

Q: Lab note: need switch fluorescence ratio for `CCGCTGGGGG` on ATP, anyone have it?
Result: 1.18

Q: What reported switch fluorescence ratio corresponds to `GTTTAATATT` on ATP?
Result: 0.99

Q: Provide the documented switch fluorescence ratio with ATP as the system for `TCACGGCTGG`
Result: 0.971

Q: Return switch fluorescence ratio measured with ATP given this sequence: `TATGTCCGCT`
Result: 1.05

Q: Missing value: switch fluorescence ratio, ATP, entry `CAAGATCGGC` . Fill in?
Result: 1.01

Q: Give switch fluorescence ratio (ATP) of the following sequence: `GTCGGCATGG`
Result: 1.07

Q: What is its switch fluorescence ratio for ATP? Entry: `GATTGGTTGC`
Result: 0.994

Q: Field: switch fluorescence ratio (ATP). Entry: `ATCAAGGGGA`
Result: 0.972

Q: Notebook: pull reported switch fluorescence ratio for ATP, entry `TGCAGGGGGG`
Result: 1.02

Q: Under ATP: switch fluorescence ratio value of `GTGGTGGTGG` ?
Result: 0.996

Q: Report switch fluorescence ratio for `GCCTAACACT` tested on ATP.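 Also: ATP exposure 15 min at 22 °C before imaging.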
Result: 1.01
